Entries and their solubility (mole fraction)
Settings: in n-propanol, 298.15 K
# answer = number (no unit)

CC1(N=C(O)c2ccccc2)CCC2CC1C(c1ccccc1)=[NH+]C2(C)C.[O-][Cl+3]([O-])([O-])[O-] (configuration not stated): 0.0013

Kindly review the next molecule as well.
Q: Look at this molecule and give its reported solubility (mole fraction). CC(=O)NC1(C)CCC2CC1C(C)=NC2(C)C (configuration not stated)
A: 0.00144

----------
Conditions: in n-propanol, 318.15 K
Measure: solubility (mole fraction)
# answer = number (no unit)

CC(=O)NC1(C)CCC2CC1C(C)=NC2(C)C (configuration not stated): 0.00264

Kindly review the next compound as well.
Q: Look at this compound and give its reported solubility (mole fraction). CC1(N=C(O)c2ccccc2)CCC2CC1C(c1ccccc1)=[NH+]C2(C)C.[O-][Cl+3]([O-])([O-])[O-] (configuration not stated)
A: 0.00288

----------
Conditions: in acetone, 303.15 K
Measure: solubility (mole fraction)
# answer = number (no unit)

CC(=O)NC1(C)CCC2CC1C(C)=NC2(C)C (configuration not stated): 0.00388

Kindly review the next compound as well.
Q: Look at this compound and give its reported solubility (mole fraction). CC1(N=C(O)c2ccccc2)CCC2CC1C(c1ccccc1)=[NH+]C2(C)C.[O-][Cl+3]([O-])([O-])[O-] (configuration not stated)
A: 0.00308

----------
Settings: in propylene glycol, 318.15 K
Measure: solubility (mole fraction)

Q: Look at this compound and give its reported solubility (mole fraction). CC1(N=C(O)c2ccccc2)CCC2CC1C(c1ccccc1)=[NH+]C2(C)C.[O-][Cl+3]([O-])([O-])[O-] (configuration not stated)
A: 0.0187

Q: Look at this compound and give its reported solubility (mole fraction). CC(=O)NC1(C)CCC2CC1C(C)=NC2(C)C (configuration not stated)
A: 0.0251

----------
Entries and their solubility (mole fraction)
Conditions: in acrylonitrile, 303.15 K

CC(=O)NC1(C)CCC2CC1C(C)=NC2(C)C (configuration not stated): 0.00458

Kindly review the next compound as well.
Q: Look at this compound and give its reported solubility (mole fraction). CC1(N=C(O)c2ccccc2)CCC2CC1C(c1ccccc1)=[NH+]C2(C)C.[O-][Cl+3]([O-])([O-])[O-] (configuration not stated)
A: 0.00661

----------
Details: in ethanol, 298.15 K
Entries and their solubility (mole fraction)

CC(=O)NC1(C)CCC2CC1C(C)=NC2(C)C (configuration not stated): 0.00153

Kindly review the next molecule as well.
Q: Look at this molecule and give its reported solubility (mole fraction). CC1(N=C(O)c2ccccc2)CCC2CC1C(c1ccccc1)=[NH+]C2(C)C.[O-][Cl+3]([O-])([O-])[O-] (configuration not stated)
A: 0.0015

----------
Conditions: in propionitrile, 318.15 K
Entries and their solubility (mole fraction)

CC(=O)NC1(C)CCC2CC1C(C)=NC2(C)C (configuration not stated): 0.00526

Kindly review the next molecule as well.
Q: Look at this molecule and give its reported solubility (mole fraction). CC1(N=C(O)c2ccccc2)CCC2CC1C(c1ccccc1)=[NH+]C2(C)C.[O-][Cl+3]([O-])([O-])[O-] (configuration not stated)
A: 0.00346

----------
Conditions: in methanol, 308.15 K
Measure: solubility (mole fraction)
# answer = number (no unit)

CC(=O)NC1(C)CCC2CC1C(C)=NC2(C)C (configuration not stated): 0.0111

Kindly review the next molecule as well.
Q: Look at this molecule and give its reported solubility (mole fraction). CC1(N=C(O)c2ccccc2)CCC2CC1C(c1ccccc1)=[NH+]C2(C)C.[O-][Cl+3]([O-])([O-])[O-] (configuration not stated)
A: 0.0038

Sourced from BigSolDB 2.1
